# Lookup of reported IC50 keyed by entry
system: Nitrosomonas europaea; assay: Nitrification inhibition assay with Nitrosomonas europaea (nitrite level after 24 h); assay type: cell-based; conditions: Nitrosomonas europaea; 8-point dose response, 2 to 100 μM; read-out: IC50
measuredEndpoint: IC50

                                   compound  measuredendpoint  obsvalue
0        COc1cccc(-c2nc(CSC3=NCCS3)cs2)c1OC              IC50  < 100 µM
1                              NCCCSc1nccs1              IC50  > 100 µM
2  CC1CSC(SCc2cc(=O)n3ccsc3n2)=N1 (centres unmarked)              IC50   < 57 µM
3                             CSc1ncc(Br)s1              IC50  > 100 µM
4                                 O=C1NCCS1              IC50  < 100 µM
